pIC50 for assorted molecules
- Target entity: human LOXL2 (Homo sapiens (Human), UniProt Q9Y4K0)
- Sequence (Q9Y4K0 26-774): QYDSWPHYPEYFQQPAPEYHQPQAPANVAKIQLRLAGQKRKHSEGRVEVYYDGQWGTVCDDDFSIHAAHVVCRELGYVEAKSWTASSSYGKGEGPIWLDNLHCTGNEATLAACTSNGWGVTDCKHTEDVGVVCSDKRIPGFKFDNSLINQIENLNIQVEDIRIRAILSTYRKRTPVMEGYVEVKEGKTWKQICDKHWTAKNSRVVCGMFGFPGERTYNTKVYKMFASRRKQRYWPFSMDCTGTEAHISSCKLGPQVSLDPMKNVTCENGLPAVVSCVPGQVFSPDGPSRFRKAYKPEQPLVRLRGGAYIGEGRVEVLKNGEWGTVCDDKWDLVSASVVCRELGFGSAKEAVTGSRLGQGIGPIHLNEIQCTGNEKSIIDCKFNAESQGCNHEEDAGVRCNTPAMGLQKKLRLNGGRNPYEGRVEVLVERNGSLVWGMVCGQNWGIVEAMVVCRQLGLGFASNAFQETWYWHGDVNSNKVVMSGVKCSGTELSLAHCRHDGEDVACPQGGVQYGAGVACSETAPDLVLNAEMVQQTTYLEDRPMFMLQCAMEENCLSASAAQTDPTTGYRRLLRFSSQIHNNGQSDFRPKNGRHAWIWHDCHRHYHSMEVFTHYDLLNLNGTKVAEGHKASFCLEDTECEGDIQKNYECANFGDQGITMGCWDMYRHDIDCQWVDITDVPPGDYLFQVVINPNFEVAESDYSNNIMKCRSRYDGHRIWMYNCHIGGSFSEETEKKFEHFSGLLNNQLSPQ
- Assay: Human LOXL2 Amine Oxidase Activity Assay (Amplex Red fluorescence)
- Assay type: biochemical
- Conditions: concentrated conditioned media from CHO cells stably expressing human LOXL2; 2 h at 37° C. preincubation; DAP substrate; read-out: IC50
pIC50: −log10 of the molar value. Structures can show the parent of a compound that is named as a salt.

# Molecule, pIC50
records = [
    ("NCc1ccnc(Oc2cccc(C(=O)Nc3ccc(C(F)(F)F)cc3)c2)c1 [Compound 1-22, hydrochloride]", "> 6.52"),
    ("CCCCCCCCCCCCCNC(=O)c1cccc(Oc2cc(CN)ccn2)c1 [Compound 1-44, hydrochloride]", "> 6.52"),
    ("NCc1ccnc(Oc2ccc(C(=O)N3CCC(O)(C(F)(F)F)C3)cc2)c1 (racemic) [Compound 1-12, hydrochloride]", "> 6.52"),
    ("NCc1ccnc(-c2cccnc2)c1 [Compound 2-3, [2,3′-Bipyridin]-4-ylmethanamine]", "> 6.52"),
    ("CN(C)c1cc(CN)cc(Oc2cccc(Oc3ccccc3)c2)n1 [Compound 3-1, hydrochloride]", "< 6.00"),
    ("NCc1ccnc(Oc2cccc(C(=O)Nc3ccc(F)cc3F)c2)c1 [Compound 1-24, hydrochloride]", "> 6.52"),
    ("NCc1ccnc(Oc2cccc3c2ccn3Cc2cnc(C(F)(F)F)s2)c1 [Compound 2-17, hydrochloride]", "> 6.52"),
]

Attribution: patent US11358936B2
